# measurementProtocol: Drug repurposing screens with cells derived from glioblastoma tumor samples (AID 1345199); note: % is set by controls: 0 for no effect and ±100 for the full control effect; nearly all actives have a fitted effect of over 40% in size
# conditionContext: GBM patient neurospheres viability, ATP luminescence, 48 h; at 45.9 µM (top of the series); tumour line B
Results filed as inconclusive are left out.
Listed next: entries and their corresponding activity, negative = cell killing.
readoutLabel: activity, negative = cell killing (%)

>>> df
                                    molecule  numericresult
 0                 CCCC(C)(COC(N)=O)COC(N)=O          0.449
 1  COc1ccc2c(c1)C13CCCC[C@@H]1C(C2)N(C)CC3 (some centres undefined)          -6.27
 2  C=CCN1C[C@H](C)N([C@H](c2ccc(C(=O)N(CC)CC)cc2)c2cccc(OC)c2)C[C@H]1C          -27.6
 3  COc1ccc2c(c1OC)C(=O)O[C@H]2[C@@H]1c2cc3c(cc2CCN1C)OCO3          0.565
 4                    C[C@H](N)C(=O)c1ccccc1          -11.6
 5  CC(C)(C)NCC(O)c1cc(Cl)c(N)c(C(F)(F)F)c1 (centres undefined)          -7.42
 6  O=C1Nc2ccc(Cl)cc2C(c2ccccc2Cl)=NC1O (centres undefined)          0.661
 7               COP(=S)(OC)Oc1ccc(SC)c(C)c1          -12.6
 8  C[N+]1(CCF)[C@@H]2CC[C@H]1CC(OC(=O)C(O)(c1ccccc1)c1ccccc1)C2 (some centres undefined)          -12.6
 9  O=[N+]([O-])O[C@H]1CO[C@H]2[C@@H]1OC[C@H]2O[N+](=O)[O-]          -6.92
10  CC(C)(C)NCC(O)c1ccccc1Cl (centres undefined)          -9.73
11  CN1C[C@H](C(=O)N[C@]2(C)O[C@@]3(O)[C@@H]4CCCN4C(=O)[C@H](Cc4ccccc4)N3C2=O)C=C2c3cccc4[nH]cc(c34)C[C@H]21          -13.4
12  CCCCCCCCCC(=O)O[C@H]1CC[C@H]2[C@@H]3CCC4=CC(=O)CC[C@@H]4[C@H]3CC[C@]12C          -3.32
13  C[C@]12CC[C@@H]3c4ccc(OC(=O)N(CCCl)CCCl)cc4CC[C@H]3[C@@H]1CC[C@@H]2O          -7.93
14                      Nc1nc(N)nc(NC2CC2)n1          -5.44
15   Cc1nnc2n1-c1ccc(Cl)cc1C(c1ccccc1Cl)=NC2          -10.7
16    CCc1cc2c(s1)-n1c(C)nnc1CN=C2c1ccccc1Cl          -22.1
17                             Oc1ccc(Cl)cc1          -7.37
18                     CC(C)c1cccc(C(C)C)c1O           6.49
19  CCOC(=O)CC(SP(=S)(OC)OC)C(=O)OCC (centres undefined)          -14.8
20      Clc1ccc2c(c1)C(c1ccccc1)=NCc1nncn1-2          -7.06
21  CC(C)=CC1C(C(=O)OCN2C(=O)C3=C(CCCC3)C2=O)C1(C)C (centres undefined)          -18.8
22                    CC(C)C[C@H](CN)CC(=O)O           2.42
23                           Nc1ccccc1C(=O)O           2.36

====

# conditionContext: Ebola virus entry assay, green fluorescence channel
Entries with a potency or affinity are not part of this list. Peptide text beside a SMILES is read from it.
readoutLabel: efficacy (%)

compound	readoutLabel	numericResult
CCOC(=O)c1ccc(OCCN2C[C@H](O)[C@@H](O)[C@H](O)[C@H]2CO)cc1	efficacy	-12.9
Cc1cc(O)c2ccccc2c1O	efficacy	13.4
Cc1c(F)c(N2CCNC(C)C2)cc2c1c(=O)c(C(=O)O)cn2C1CC1 (centres undefined)	efficacy	-15
CC(=O)[C@H]1CC[C@H]2[C@@H]3C=CC4=CC(=O)CC[C@@]4(C)[C@@H]3CC[C@]12C	efficacy	16
CN=C(NC#N)Nc1ccc(C2=NNC(=O)CC2C)cc1 (centres undefined)	efficacy	-19.1
Cc1nc2ccccn2c(=O)c1CCN1CCC(C(=O)c2ccc(F)cc2)CC1	efficacy	25.5
COc1ccc(C(=O)c2ccccc2O)c(O)c1	efficacy	-11.1
O=C(O)c1cc(O)c(O)c(O)c1	efficacy	15.2
CCN1CCC[C@H]1CNC(=O)c1c(O)c(Cl)cc(Cl)c1OC	efficacy	-17.7
Cc1c(N(C)CS(=O)(=O)O)c(=O)n(-c2ccccc2)n1C	efficacy	-26.4
CCCc1c2oc(C(=O)O)cc(=O)c2cc2c(=O)cc(C(=O)O)n(CC)c12	efficacy	16
CCc1cccc(CC)c1NC(=O)CN(CC(=O)O)CC(=O)O	efficacy	15.2
CNC(C)(C)Cc1ccccc1	efficacy	-14.9
CCCOC(=O)c1ccccc1	efficacy	17.4
C[C@]12C=CC(=O)C=C1[C@@H](F)C[C@@H]1[C@@H]2[C@@H](O)C[C@@]2(C)[C@H]1CC[C@]2(O)C(=O)CO	efficacy	13.6
COc1cc(NS(=O)(=O)c2ccc(N)cc2)nc(C)n1	efficacy	-19.1
C/C(=C(\CCO)SS/C(CCO)=C(\C)N(C=O)Cc1cnc(C)nc1N)N(C=O)Cc1cnc(C)nc1N	efficacy	-13
CCCCC(CC)COC(=O)c1ccccc1O (centres undefined)	efficacy	-34.1
CCCc1ccc(OCC(=O)N2CCN(C(=O)COc3ccc(CCC)cc3OC)CC2)c(OC)c1	efficacy	12.4
CCN(CCO)CCn1c(Cc2ccccc2)nc2c1c(=O)n(C)c(=O)n2C	efficacy	27.5
ClCCN1CCCC1	efficacy	-44.4
Cc1ccc(C(=O)C(C)CN2CCCCC2)cc1 (centres undefined)	efficacy	-18.5
C[C@]12CCC(=O)C=C1CC[C@@H]1[C@@H]2CC[C@]2(C)C(=O)CC[C@@H]12	efficacy	19.1
COP(=S)(OC)Oc1ccc(S(=O)(=O)N(C)C)cc1	efficacy	-33.6
CC(C)=CC1C(C(=O)OCN2C(=O)C3=C(CCCC3)C2=O)C1(C)C (centres undefined)	efficacy	28
C[N+]1(CCF)[C@@H]2CC[C@H]1CC(OC(=O)C(O)(c1ccccc1)c1ccccc1)C2 (some centres undefined)	efficacy	-17.5
NC(=O)N[C@@H](CCC(=O)O)C(=O)O	efficacy	-11.5
CC(C)Cn1cnc2c(N)nc3ccccc3c21	efficacy	-30.7
COC(=O)/C=C(/C)N	efficacy	22.1
COc1cc(O)cc(O)c1	efficacy	16.6
CCNC(=O)/C=C/c1cccc(Br)c1	efficacy	-12
CCCc1c(OCCCCc2nn[nH]n2)ccc(C(C)=O)c1O	efficacy	28.7
CC(C)(Oc1ccc(Cl)cc1)C(=O)OCCCOC(=O)C(C)(C)Oc1ccc(Cl)cc1	efficacy	-14
CC(C)Cc1ccc(CC(=O)O)cc1	efficacy	-19.8
Nc1ccc(/C=C/c2ccc(N)cc2S(=O)(=O)O)c(S(=O)(=O)O)c1	efficacy	21.3
CC(C)(Sc1cc(C(C)(C)C)c(O)c(C(C)(C)C)c1)Sc1cc(C(C)(C)C)c(O)c(C(C)(C)C)c1	efficacy	-17.7
CC(C)CCCC(C)NCCC(C)C (centres undefined)	efficacy	-17.9
COc1ccnc(CS(=O)c2nc3ccc(OC(F)F)cc3[nH]2)c1OC (centres undefined)	efficacy	-31.1
Cc1ccc(S(=O)(=O)NC(=O)NC2CCCCCCC2)cc1	efficacy	-10.6
c1ccc2c(c1)CCCC2C1=NCCN1 (centres undefined)	efficacy	-12.9
Cc1ccc(C(=O)C(=O)O)cc1C	efficacy	-11.1
CCNC(=O)[C@@H]1CCCN1C(=O)[C@H](CCCN=C(N)N)NC(=O)[C@H](CC(C)C)NC(=O)CNC(=O)[C@H](Cc1ccc(O)cc1)NC(=O)[C@H](CO)NC(=O)[C@H](Cc1c[nH]c2ccccc12)NC(=O)[C@H](Cc1cnc[nH]1)NC(=O)[C@@H]1CCC(=O)N1 (HELM PEPTIDE1{[Glp].H.W.S.Y.G.L.R.P.[CCN[*:1]]}$$$$V2.0)	efficacy	17.9
Cc1c(C)c2c(c(C)c1O)CCC(C)(COc1ccc(CC3SC(=O)NC3=O)cc1)O2 (centres undefined)	efficacy	35.5
CC(C)(C)C1CCC(CC2=C(O)c3ccccc3C(=O)C2=O)CC1 (centres undefined)	efficacy	-22.8

====

# conditionContext: Ebola virus entry assay, blue channel (ratio component)
Results with a measured potency or affinity are listed apart. Activity calls are given as the source filed them. No rule for the calls is given here.
readoutLabel: outcome

                                    compound  readoutlabel    result
 0            Cc1cc(O)c2c(O)c3c(O)cccc3cc2c1       outcome  inactive
 1  CCOC(=O)/C=C(C)/C=C/C=C(C)/C=C/c1c(C)cc(OC)c(C)c1C       outcome  inactive
 2           CCN[C@@H](C)Cc1cccc(C(F)(F)F)c1       outcome  inactive
 3  CSCC[C@H](NC(=O)[C@H](Cc1c[nH]c2ccccc12)NC(=O)CCNC(=O)OC(C)(C)C)C(=O)N[C@@H](CC(=O)O)C(=O)N[C@@H](Cc1ccccc1)C(N)=O       outcome  inactive
 4                O=C(O)/C=C(\CC(=O)O)C(=O)O       outcome  inactive
 5            COP(=S)(OC)Oc1cc(Cl)c(Cl)cc1Cl       outcome  inactive
 6  CC(=O)[C@@]1(O)CC[C@H]2[C@@H]3C[C@H](C)C4=CC(=O)C=C[C@]4(C)[C@@]3(F)[C@@H](O)C[C@@]21C       outcome  inactive
 7                        Clc1ccccc1N1CCNCC1       outcome  inactive
 8       Cc1cc(NS(=O)(=O)c2ccc(N)cc2)nc(C)n1       outcome  inactive
 9                         CCCCCCCCCCCCCCCCO       outcome  inactive
10    CC(=O)Nc1ccc(OC(=O)c2ccccc2OC(C)=O)cc1       outcome  inactive
11                   CC(=O)Nc1ccc(C(=O)O)cc1       outcome  inactive
12      Cc1cccc(C)c1NC(=O)CN(CC(=O)O)CC(=O)O       outcome  inactive
13  CCOc1ccc(NC(=O)CC(C)O)cc1 (stereo not drawn)       outcome  inactive
14                  O=C(O)c1ccccc1OP(=O)(O)O       outcome  inactive
15              O=C(OOC(=O)c1ccccc1)c1ccccc1       outcome  inactive
16  CCN1CCC[C@H]1CNC(=O)c1cc(S(N)(=O)=O)ccc1OC       outcome  inactive
17  CCN(CC)C(C)CN1c2ccccc2Sc2ccccc21 (stereo not drawn)       outcome  inactive
18  CCC[C@@H]1C[C@@H](C(=O)N[C@@H]([C@H]2O[C@H](SC)[C@H](O)[C@@H](O)[C@H]2O)[C@@H](C)O)N(C)C1       outcome  inactive
19            CCN1CCCC1CN (stereo not drawn)       outcome  inactive
20  CC(C)(C)C1CCC(CC2=C(O)c3ccccc3C(=O)C2=O)CC1 (stereo not drawn)       outcome  inactive
21  COc1cc2c3cc1Oc1cc(ccc1O)C[C@@H]1c4c(cc(OC)c(O)c4Oc4ccc(cc4)C[C@@H]3N(C)CC2)CC[N+]1(C)C       outcome  inactive
22                      O=C(CCCl)NCCc1ccccc1       outcome  inactive
